B1: LINE1-mini (parent)
chain: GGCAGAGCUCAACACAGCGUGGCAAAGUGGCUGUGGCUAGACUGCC

variants of: B1; assay: self-cleavage, relative activity (ratio to wild type); higher = more cleavage; in vitro, sequencing; the parent is a self-cleaving ribozyme
Please provide measured self-cleavage for the entries that follow.

Some variants with recorded self-cleavage:
C18U A41C = 0.05
A14U C31U = 0.04
C23U C37G = 0.02
A24G U34G = 0.14

Your task in this section: give self-cleavage for each listed record.
1. G1U A41C
2. C3A A39G

Result:
1: 0.05; 2: 0.57

Fill in self-cleavage for each of the 8 variants listed.
1. C8U A14C
2. G19C G29A
3. C3U G35U
4. U34C C45U
5. A12G A16C
6. G7C G36A
7. U32A A39G
8. A39G G40U

Result:
[0.15, 0.92, 0.18, 0.14, 0.06, 0.2, 0.05, 0.14]
